Where these numbers come from: BindingDB's records for PubMed 1874734

# TGT: cAMP-dependent protein kinase catalytic subunit alpha (Rattus norvegicus)
# MEASUREMENT NOTES: PKA assay
PARAMETER MEASURED: pIC50
Please treat pIC50 as minus the base-10 logarithm of the molar concentration.

QUERY: Returns the measured pIC50 for the input molecule. Input: CN1CCCC1CCn1cc(C2=C(c3c[nH]c4ccccc34)C(=O)NC2=O)c2ccccc21 (configuration not stated)
RESULT: 5.70
